system: Plasmodium yoelii; test: Antimalarial activity against chloroquine-resistant Plasmodium yoelii N-67 infected Swiss mouse assessed as suppression of parasitemia at 100 mg/kg/day, po qd for 4 days measured on day 6; type: functional
property-label: inhibition in vivo at 100 mg/kg/day (%)
Response body: numeric value in %, unit text excluded.

Known results for compounds:
[[record]]
compound = "CCC(C)C1=CC(/C=C/C(=O)c2cccs2)=CC(=C\\NCCNc2ccnc3cc(Cl)ccc23)/C1=O (centres undefined)"
value_measured = 86.7

[[record]]
compound = "CC(C)(C)C1=CC(/C=C/C(=O)c2ccc(Br)cc2)=CC(=C\\NCCNc2ccnc3cc(Cl)ccc23)/C1=O"
value_measured = 96.7

[[record]]
compound = "COc1cc(C(=O)/C=C/C2=CC(=C\\NCCNc3ccnc4cc(Cl)ccc34)/C(=O)C(C)=C2)cc(OC)c1OC"
value_measured = 82.1


Kindly review the next compound as well.
So what's the measured inhibition in vivo at 100 mg/kg/day for this one? CCC(C)C1=CC(/C=C/C(=O)c2ccccc2)=CC(=C\NCCNc2ccnc3cc(Cl)ccc23)/C1=O (centres undefined) 83.2
